- Assay target: Recombinant human his-tagged IGF 1R extracellular domain protein (human) (UniProt P08069)
- Assay: SPR, captured IgG, IGF-1R ECD-his analyte, dissociation pH 6
Property: koff (s⁻¹)
Could you give me the number in s⁻¹? Just the number is fine.

Query :: Reported koff for VRDN-02541 (antibody, V domains shown) VH: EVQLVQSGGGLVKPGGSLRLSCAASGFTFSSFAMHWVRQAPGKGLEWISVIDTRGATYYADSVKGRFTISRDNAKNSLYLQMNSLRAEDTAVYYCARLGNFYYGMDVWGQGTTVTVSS VL: EIVLTQSPGTLSVSPGERATLSCRASQSIGSSLHWYQQKPGQAPRLLIKYAHQSLSGIPDRFSGSGSGTDFTLTISRLEPEDFAVYYCHQSSRLPHTFGQGTKVEIK : what is it?
Result :: 1e-06

Query :: Could you do the same for VRDN-02544 (antibody, V domains shown) VH: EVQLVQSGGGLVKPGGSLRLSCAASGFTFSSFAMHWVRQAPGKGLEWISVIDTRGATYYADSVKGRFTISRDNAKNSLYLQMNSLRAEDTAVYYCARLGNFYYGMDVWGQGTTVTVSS VL: EIVLTQSPGTLSVSPGERATLSCRASQSIGSSLHWYQQKPGQAPRLLIKYASQSHSGIPDRFSGSGSGTDFTLTISRLEPEDFAVYYCHQSSRLPHTFGQGTKVEIK , please?
Result :: 1e-06

Query :: Could you do the same for VRDN-02502 (antibody, V domains shown) VH: EVQLVQSGGGLVKPGGSLRLSCAASGHTFSSFAMHWVRQAPGKGLEWISVIDTRGATYYADSVKGRFTISRDNAKNSLYLQMNSLRAEDTAVYYCARLGNFYYGMDVWGQGTTVTVSS VL: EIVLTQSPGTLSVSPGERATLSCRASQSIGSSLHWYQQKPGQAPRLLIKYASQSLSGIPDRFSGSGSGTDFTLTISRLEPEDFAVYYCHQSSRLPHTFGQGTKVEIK , please?
Result :: 1e-06
